meta.source: ChEMBL document CHEMBL1125049

Organism: Rattus norvegicus
Assay type: functional
measured quantity: Inhibition (%)
Unit % implied. Number only.

Which value of Inhibition has been reported for CN1CCc2cccc3c2[C@H]1Cc1c(Br)cc(Br)c(O)c1-3 in the records?
45.9

Which value of Inhibition has been reported for COc1ccc2c(c1O)-c1c3c(cc4c1[C@H](C2)N(C)CC4)OCO3 [(S)-BULBOCAPNINE] in the records?
85.1

Which value of Inhibition has been reported for CN1CCc2cccc3c2[C@H]1Cc1c([N+](=O)[O-])ccc(O)c1-3 in the records?
33.5

Which value of Inhibition has been reported for CN1CCc2cccc3c2[C@@H]1Cc1cc(Br)cc(O)c1-3 in the records?
3.2

Which value of Inhibition has been reported for COc1cccc2c1-c1cccc3c1[C@@H](C2)N(C)CC3 in the records?
31.7

* * *

Could you please report measured pIC50 for the items listed next?
// field semantics: pIC50 = negative decimal log of concentration (mol/L)

# returns recorded pIC50 (system: D(1A) dopamine receptor (Rattus norvegicus)) for COc1cccc2c1-c1cccc3c1[C@H](C2)N(C)CC3
4.92

# returns recorded pIC50 (system: D(1A) dopamine receptor (Rattus norvegicus)) for CN1CCc2cccc3c2[C@@H]1Cc1c(Br)ccc(O)c1-3
5.06

# returns recorded pIC50 (system: D(1A) dopamine receptor (Rattus norvegicus)) for CN1CCc2cccc3c2[C@H]1Cc1c(Br)ccc(O)c1-3
6.74

# returns recorded pIC50 (system: D(1A) dopamine receptor (Rattus norvegicus)) for COc1ccc2c(c1O)-c1c3c(cc4c1[C@H](C2)N(C)CC4)OCO3 [(S)-BULBOCAPNINE]
6.13

* * *

D(1A) dopamine receptor (Rattus norvegicus, UniProt P18901): reported IC50 for various compounds.
Sequence (P18901 whole entry): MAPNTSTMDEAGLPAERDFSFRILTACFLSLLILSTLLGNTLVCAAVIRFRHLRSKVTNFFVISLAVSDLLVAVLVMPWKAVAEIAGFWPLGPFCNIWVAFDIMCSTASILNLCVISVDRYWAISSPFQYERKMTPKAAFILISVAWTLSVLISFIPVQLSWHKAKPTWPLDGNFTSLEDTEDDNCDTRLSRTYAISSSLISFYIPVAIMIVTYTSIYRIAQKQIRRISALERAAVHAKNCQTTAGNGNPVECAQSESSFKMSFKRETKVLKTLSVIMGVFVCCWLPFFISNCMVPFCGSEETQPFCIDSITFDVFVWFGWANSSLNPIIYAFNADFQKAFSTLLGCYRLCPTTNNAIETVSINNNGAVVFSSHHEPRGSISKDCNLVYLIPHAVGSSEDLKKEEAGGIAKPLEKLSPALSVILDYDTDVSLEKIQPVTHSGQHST
Unit nM implied. Number only.

# returns recorded IC50 (system: D(1A) dopamine receptor (Rattus norvegicus, UniProt P18901)) for CN1CCc2cccc3c2[C@H]1Cc1cccc(O)c1-3
107

# returns recorded IC50 (system: D(1A) dopamine receptor (Rattus norvegicus, UniProt P18901)) for CN1CCc2cccc3c2[C@H]1Cc1cc(Br)cc(O)c1-3
818

# returns recorded IC50 (system: D(1A) dopamine receptor (Rattus norvegicus, UniProt P18901)) for COc1ccc2c(c1O)-c1cccc3c1[C@@H](C2)N(C)CC3 [APOCIDEINE]
13300

# returns recorded IC50 (system: D(1A) dopamine receptor (Rattus norvegicus, UniProt P18901)) for CN1CCc2cccc3c2[C@H]1Cc1ccc(Br)c(O)c1-3
171

# returns recorded IC50 (system: D(1A) dopamine receptor (Rattus norvegicus, UniProt P18901)) for CN1CCc2cccc3c2[C@H]1Cc1ccc(Cl)c(O)c1-3
637

# returns recorded IC50 (system: D(1A) dopamine receptor (Rattus norvegicus, UniProt P18901)) for CN1CCc2cccc3c2[C@@H]1Cc1cccc(O)c1-3
5060

# returns recorded IC50 (system: D(1A) dopamine receptor (Rattus norvegicus, UniProt P18901)) for COc1cccc2c1-c1cccc3c1[C@@H](C2)N(C)CC3
3280

# returns recorded IC50 (system: D(1A) dopamine receptor (Rattus norvegicus, UniProt P18901)) for CN1CCc2cccc3c2[C@H]1Cc1c(Cl)ccc(O)c1-3
561

# returns recorded IC50 (system: D(1A) dopamine receptor (Rattus norvegicus, UniProt P18901)) for CN1CCc2cccc3c2[C@@H]1Cc1ccc(Br)c(O)c1-3
3340

* * *

Could you please report measured Inhibition for the items listed next?
Organism: Rattus norvegicus
Format: functional
Unit % implied. Number only.

Which value of Inhibition has been reported for CN1CCc2cccc3c2[C@H]1Cc1ccc(Br)c(O)c1-3 in the records?
87.8

Which value of Inhibition has been reported for CN1CCc2cccc3c2[C@@H]1Cc1cccc(O)c1-3 in the records?
38

Which value of Inhibition has been reported for CN1CCc2cccc3c2[C@H]1Cc1cccc(O)c1-3 in the records?
87.8

Which value of Inhibition has been reported for CN1CCc2cccc3c2[C@@H]1Cc1ccc(O)c(O)c1-3 [(S)APOMORPHINE] in the records?
42.3

* * *

target entity: D(2) dopamine receptor (Rattus norvegicus, UniProt P61169)
Sequence (P61169 whole entry): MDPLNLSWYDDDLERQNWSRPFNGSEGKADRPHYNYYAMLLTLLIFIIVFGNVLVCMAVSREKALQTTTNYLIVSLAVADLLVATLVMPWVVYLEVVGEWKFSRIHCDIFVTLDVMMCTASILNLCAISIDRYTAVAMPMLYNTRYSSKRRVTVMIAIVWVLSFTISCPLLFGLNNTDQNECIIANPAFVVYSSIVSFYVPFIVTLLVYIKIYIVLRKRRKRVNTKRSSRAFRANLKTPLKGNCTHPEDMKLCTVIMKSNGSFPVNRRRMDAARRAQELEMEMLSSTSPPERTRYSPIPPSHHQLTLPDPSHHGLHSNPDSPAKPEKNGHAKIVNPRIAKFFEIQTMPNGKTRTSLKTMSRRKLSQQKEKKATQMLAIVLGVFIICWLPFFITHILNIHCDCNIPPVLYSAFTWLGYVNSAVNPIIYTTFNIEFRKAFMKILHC
assay protocol: In vitro binding affinity towards rat Dopamine receptor D2 by [3H]spiperone displacement.
pIC50: −log10 of the molar value.
Could you please report measured pIC50 for the items listed next?

Which value of pIC50 has been reported for CN1CCc2cccc3c2[C@@H]1Cc1cc(Br)cc(O)c1-3 in the records?
< 6.00

Which value of pIC50 has been reported for CN1CCc2cccc3c2[C@@H]1Cc1c(Br)ccc(O)c1-3 in the records?
< 5.00

Which value of pIC50 has been reported for CN1CCc2cccc3c2[C@H]1Cc1c(Br)cc(Br)c(O)c1-3 in the records?
< 6.00
